Listing of entries alongside the reported #Cases >70% cell death.
system: relapsed AML cells; test: Drug sensitivity assay, 1,536-well, 3-day culture with individual approved drugs at 10 μM, viability by alamarBlue; format: cell-based, human; settings: number of relapsed AML cases out of 18 tested with >70% cell death; 10 μM, 3-day culture
Where a name gives a salt, the structure may show the parent alone.

compound	system_tested	#Cases >70% cell death
Clc1ccc(Cn2c(CN3CCCC3)nc3ccccc32)cc1 [CLEMIZOLE HYDROCHLORIDE]	relapsed AML cells	1
OC(Cn1cncn1)(Cn1cncn1)c1ccc(F)cc1F	relapsed AML cells	1
COc1c(C)c2c(c(O)c1C/C=C(\C)CCC(=O)O)C(=O)OC2	relapsed AML cells	5
CC(C)c1c(C(=O)Nc2ccccc2)c(-c2ccccc2)c(-c2ccc(F)cc2)n1CC[C@@H](O)C[C@@H](O)CC(=O)[O-].CC(C)c1c(C(=O)Nc2ccccc2)c(-c2ccccc2)c(-c2ccc(F)cc2)n1CC[C@@H](O)C[C@@H](O)CC(=O)[O-].[Ca+2]	relapsed AML cells	12
O=C(Nc1ccc([N+](=O)[O-])cc1Cl)c1cc(Cl)ccc1O [NICLOSAMIDE]	relapsed AML cells	1
CCC1=C[C@@H]2CN(CCc3c([nH]c4ccccc34)[C@@](C(=O)OC)(c3cc4c(cc3OC)N(C)[C@H]3[C@@](O)(C(=O)OC)[C@H](OC(C)=O)[C@]5(CC)C=CCN6CC[C@]43[C@@H]65)C2)C1 [ANHYDROVINBLASTINE]	relapsed AML cells	5
COc1c(C)cnc(Cn2cnc3c(Cl)nc(N)nc32)c1C	relapsed AML cells	18
CC[C@H]1CN2CCc3cc(OC)c(OC)cc3[C@@H]2C[C@@H]1C[C@H]1NCCc2cc(OC)c(OC)cc21	relapsed AML cells	18
CC(NCCC(c1ccccc1)c1ccccc1)c1ccccc1 (stereo not drawn) [FENDILINE HYDROCHLORIDE]	relapsed AML cells	1
C[C@]12C=CC(=O)C=C1CC[C@@H]1[C@@H]2[C@@H](O)C[C@@]2(C)[C@H]1CC[C@]2(O)C(=O)CO	relapsed AML cells	1
CCCOc1ccc2nc(NC(=O)OC)[nH]c2c1	relapsed AML cells	5
COCCn1c2c([n+](Cc3cnccn3)c1C)C(=O)c1ccccc1C2=O	relapsed AML cells	18
O=c1cc[nH]c(=O)[nH]1	relapsed AML cells	7
COc1cc(/C=C/C(=O)CC(=O)/C=C/c2ccc(O)c(OC)c2)ccc1O	relapsed AML cells	1
Cc1cc([C@@H](C)Nc2ccccc2C(=O)O)c2nc(N3CCOCC3)cc(=O)n2c1	relapsed AML cells	1
CN1CCN(CCCN2c3ccccc3Sc3ccc(Cl)cc32)CC1	relapsed AML cells	6
Clc1ccc(C(Cn2ccnc2)OCc2csc3c(Cl)cccc23)c(Cl)c1 (stereo not drawn)	relapsed AML cells	2
C[C@H]1O[C@@H](O[C@H]2[C@@H](O)C[C@H](O[C@H]3[C@@H](O)C[C@H](O[C@H]4CC[C@@]5(C)[C@H](CC[C@@H]6[C@@H]5CC[C@]5(C)[C@@H](C7=CC(=O)OC7)CC[C@]65O)C4)O[C@@H]3C)O[C@@H]2C)C[C@H](O)[C@@H]1O	relapsed AML cells	18
C#Cc1cccc(Nc2ncnc3cc(OCCOC)c(OCCO)cc23)c1	relapsed AML cells	3
CC[C@H](CC#N)OC(=O)N[C@@H](C)c1cccc(NC(=O)Nc2ccc(-c3cnco3)c(OC)c2)c1	relapsed AML cells	10
Cn1cncc1[C@@](N)(c1ccc(Cl)cc1)c1ccc2c(c1)c(-c1cccc(Cl)c1)cc(=O)n2C	relapsed AML cells	7
CC(C)/N=c1\cc2n(-c3ccc(Cl)cc3)c3ccccc3nc-2cc1Nc1ccc(Cl)cc1	relapsed AML cells	6
N=C(N)c1ccc(OCCCCCOc2ccc(C(=N)N)cc2)cc1	relapsed AML cells	2
COc1c(C)c2c(c(O)c1C/C=C(\C)CCC(=O)OCCN1CCOCC1)C(=O)OC2 [MYCOPHENOLATE MOFETIL]	relapsed AML cells	5
C#C[C@]1(O)CC[C@H]2[C@@H]3CCc4cc(OC5CCCC5)ccc4[C@H]3CC[C@@]21C	relapsed AML cells	15
COc1cc(CNC(=O)CCCC/C=C/C(C)C)ccc1O	relapsed AML cells	1
[H]/N=C(\N/C(=N/[H])NCCCCCCNC(=N)NC(=N)Nc1ccc(Cl)cc1)Nc1ccc(Cl)cc1 [CHLORHEXIDINE DIHYDROCHLORIDE]	relapsed AML cells	11
CC[C@H](C)C(=O)O[C@H]1CCC=C2C=C[C@H](C)[C@H](CC[C@@H]3C[C@@H](O)CC(=O)O3)[C@H]21	relapsed AML cells	7
C[C@@H]1O[C@@H](O[C@@H]2C=C3CC[C@@H]4[C@H](CC[C@]5(C)[C@@H](c6ccc(=O)oc6)CC[C@]45O)[C@@]3(C)CC2)[C@H](O)[C@H](O)[C@H]1O	relapsed AML cells	18
CCOc1ccc2nc(S(N)(=O)=O)sc2c1 [ETHOXZOLAMIDE]	relapsed AML cells	2

---

Entries and their #Cases >70% cell death values follow.
system: relapsed AML cells; test: Drug sensitivity assay, 1,536-well, 3-day culture with individual approved drugs at 10 μM, viability by alamarBlue; format: cell-based, human; conditions: number of relapsed AML cases out of 18 tested with >70% cell death; 10 μM, 3-day culture
Structures can show the parent of a compound that is named as a salt.

molecule	system_tested	#Cases >70% cell death
CCCCCCCCCCCCCCCC[N+](C)(C)C.[Br-] [CETRIMONIUM BROMIDE]	relapsed AML cells	17
O=C(O)[C@]1(Cc2cccc(Nc3nccs3)n2)CC[C@@H](Oc2cccc(Cl)c2F)CC1	relapsed AML cells	1
COc1ccc(-c2ccc3ncc4c(c3c2)n(-c2ccc(N3CCNCC3)c(C(F)(F)F)c2)c(=O)n4C)cn1	relapsed AML cells	8
CCCCCCCCCCCC[N+](C)(C)CCOc1ccccc1 [DOMIPHEN BROMIDE]	relapsed AML cells	16
CN1C[C@H](C(=O)N[C@]2(C)O[C@@]3(O)[C@@H]4CCCN4C(=O)[C@H](Cc4ccccc4)N3C2=O)C[C@@H]2c3cccc4[nH]cc(c34)C[C@H]21 [DIHYDROERGOTAMINE MESYLATE]	relapsed AML cells	1
O=C1NCCc2[nH]c(-c3ccncc3)cc21	relapsed AML cells	18
Cc1c(Nc2ncccc2C(=O)O)cccc1C(F)(F)F	relapsed AML cells	3
Cc1[nH]c2ccccc2c1CCNCc1ccc(/C=C/C(=O)NO)cc1	relapsed AML cells	1
CCC(C)n1ncn(-c2ccc(N3CCN(c4ccc(OCC5COC(Cn6cncn6)(c6ccc(Cl)cc6Cl)O5)cc4)CC3)cc2)c1=O (centres unmarked)	relapsed AML cells	6
CCn1cc(-c2ccnc3[nH]c(-c4cccc(CN(C)C)c4)cc23)c(-c2ccc(NC(=O)N(C)C)cc2)n1	relapsed AML cells	11
CCC(COC(=O)c1cc(OC)c(OC)c(OC)c1)(c1ccccc1)N(C)C (centres unmarked)	relapsed AML cells	1
CN(C)C[C@@H]1CCn2cc(c3ccccc32)C2=C(C(=O)NC2=O)c2cn(c3ccccc23)CCO1	relapsed AML cells	12
COC(=O)Nc1nc2ccc(C(=O)c3ccccc3)cc2[nH]1	relapsed AML cells	5
COc1cc2c(cc1O)CC[C@@H]1[C@@H]2CC[C@]2(C)[C@@H](O)CC[C@@H]12	relapsed AML cells	2
COc1ccc(S(=O)(=O)Nc2cccnc2Nc2ccc(O)cc2)cc1	relapsed AML cells	5
CCCCN(CCCC)CCCOC(=O)c1ccc(N)cc1	relapsed AML cells	1
Cc1nccn1CC1CCc2c(c3ccccc3n2C)C1=O (centres unmarked) [ONDANSETRON (Zofran), ONDANSETRON]	relapsed AML cells	1

---

tested on: relapsed AML cells; test: Drug sensitivity assay, 1,536-well, 3-day culture with individual approved drugs at 10 μM, viability by alamarBlue; format: cell-based, human; settings: number of relapsed AML cases out of 18 tested with >70% cell death; 10 μM, 3-day culture
Measured #Cases >70% cell death of individual entries

molecule	#Cases >70% cell death
COc1cc2c(c(OC)c1OC)-c1ccc(OC)c(=O)cc1[C@@H](NC(C)=O)CC2	13
C[C@@H]1C[C@@H]([C@H](O)CC2CC(=O)NC(=O)C2)C(=O)[C@@H](C)C1 [CYCLOHEXIMIDE]	18
CC1=C(C(=O)OC(C)C)C(c2cccc([N+](=O)[O-])c2)C(C(=O)OC2CN(C(c3ccccc3)c3ccccc3)C2)=C(N)N1 (stereo not shown)	5
CC(=O)Nc1ccc([C@H](C)C(=O)Nc2ncc(C(C)C)s2)cc1	11
CC(C)(C)[C@]1(O)CCN2C[C@H]3c4ccccc4CCc4cccc(c43)[C@@H]2C1.Cl [(−)-BUTACLAMOL HCL]	3
CC(C)Oc1ccc(C(=O)N[C@H](CNC(=O)CN(C)C)Cc2ccc(-c3cn4cccc([C@H](C)O)c4n3)cc2)cc1Cl	8
CCCCCCCCCCC[C@@H](C[C@@H]1OC(=O)[C@H]1CCCCCC)OC(=O)[C@H](CC(C)C)NC=O	9
